# EC50 per record follows
# TARGET DESC: human TSH receptor (Homo sapiens, UniProt P16473)
# Construct: expressed in transfected cells
# Sequence (P16473 21-764): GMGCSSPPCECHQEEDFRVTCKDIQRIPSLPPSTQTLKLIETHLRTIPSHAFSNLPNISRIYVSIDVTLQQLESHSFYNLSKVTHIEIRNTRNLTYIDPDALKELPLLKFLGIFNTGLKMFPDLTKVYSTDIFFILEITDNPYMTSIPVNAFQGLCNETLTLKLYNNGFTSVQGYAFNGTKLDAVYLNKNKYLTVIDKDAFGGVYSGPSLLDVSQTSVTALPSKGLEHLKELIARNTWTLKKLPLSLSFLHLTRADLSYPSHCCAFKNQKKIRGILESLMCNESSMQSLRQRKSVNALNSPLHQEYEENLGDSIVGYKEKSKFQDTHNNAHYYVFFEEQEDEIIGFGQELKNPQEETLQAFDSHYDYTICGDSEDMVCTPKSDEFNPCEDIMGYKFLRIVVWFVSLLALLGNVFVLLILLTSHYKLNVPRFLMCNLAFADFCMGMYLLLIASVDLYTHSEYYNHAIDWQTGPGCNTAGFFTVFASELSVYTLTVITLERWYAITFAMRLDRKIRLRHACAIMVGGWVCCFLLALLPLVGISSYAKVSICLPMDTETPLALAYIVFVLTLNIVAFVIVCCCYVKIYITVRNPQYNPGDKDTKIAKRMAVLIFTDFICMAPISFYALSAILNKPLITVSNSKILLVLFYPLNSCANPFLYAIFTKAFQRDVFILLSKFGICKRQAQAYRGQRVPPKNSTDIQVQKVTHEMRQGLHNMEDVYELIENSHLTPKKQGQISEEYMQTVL
# PROCEDURE DETAILS: intracellular cAMP accumulation, agonism at TSHR stably expressed in HEK EM 293 cells
# Format: cell-based
# SETTINGS: cAMP, HEK EM 293 cells, dose response 0-100 μM compound; ** estimated EC50, no plateau
PROPERTY MEASURED: EC50

>  <COMPOUND>
COc1cccc(-c2nc(SC)nc3sc(C(=O)OC(C)(C)C)c(N)c23)c1

>  <TARGET DESC>
human TSH receptor (Homo sapiens, UniProt P16473)

>  <EXPERIMENTAL RESULT>
11.9 µM

$$$$
>  <COMPOUND>
COc1cccc(-c2nc(SC)nc3sc(C(=O)NC(C)(C)C)c(N)c23)c1F

>  <TARGET DESC>
human TSH receptor (Homo sapiens, UniProt P16473)

>  <EXPERIMENTAL RESULT>
11.5 µM

$$$$
